Ref: ChEMBL document CHEMBL4325897

Assay: Cytotoxicity against human JHH7 cells assessed as reduction in cell viability after 72 hrs by MTT assay
Type: functional, cell-based
Conditions: JHH7, 72 h
Please provide measured IC50 for the entries that follow.

**Query** May I ask what IC50 has been recorded for "CC(=O)O[C@H]1C[C@@]2(C)[C@@H](C[C@@H](O)[C@H]3[C@@]4(C)CC[C@@H](O)[C@@H](C)[C@@H]4CC[C@@]32C)/C1=C(\CCC=C(C)C)C(=O)O" ?
**Result** > 100 µM

**Query** // query IC50 value for entry "CC(=O)O[C@H]1C[C@@]2(C)[C@@H](C[C@@H](O)[C@H]3[C@@]4(C)CC[C@@H](OC(=O)CCN)[C@@H](C)[C@@H]4CC[C@@]32C)/C1=C(\CCC=C(C)C)C(=O)OCc1ccccc1"
**Result** 3.18 µM

###

Assay: Cytotoxicity against human KBV cells assessed as cell viability at 1.5 uM after 72 hrs by MTT assay relative to control
Format: functional
Details: read-out: Activity
readout-type: viability at 1.5 µM (%)
Hi! Could you send only the number? It should be in %, unit omitted.

**Query** Fill in the blank: the reported viability at 1.5 µM of "CC(=O)O[C@H]1C[C@@]2(C)[C@@H](C[C@@H](O)[C@H]3[C@@]4(C)CC[C@@H](OC(=O)[C@@H](N)CCCCN)[C@@H](C)[C@@H]4CC[C@@]32C)/C1=C(\CCC=C(C)C)C(=O)OCc1ccccc1" is ____.
**Result** 99

**Query** What viability at 1.5 µM value was documented for this molecule, "CC(=O)O[C@H]1C[C@@]2(C)[C@@H](C[C@@H](O)[C@H]3[C@@]4(C)CC[C@@H](OC(=O)CCC(=O)n5cccn5)[C@@H](C)[C@@H]4CC[C@@]32C)/C1=C(\CCC=C(C)C)C(=O)OCc1ccccc1" ?
**Result** 77

**Query** # query: viability at 1.5 µM of entry "CC(=O)O[C@H]1C[C@@]2(C)[C@@H](C[C@@H](O)[C@H]3[C@@]4(C)CC[C@@H](OC(=O)c5ccccc5C(=O)N5CCN(C)CC5)[C@@H](C)[C@@H]4CC[C@@]32C)/C1=C(\CCC=C(C)C)C(=O)OCc1ccccc1"
**Result** 89

**Query** May I ask what viability at 1.5 µM has been recorded for "CC(=O)O[C@H]1C[C@@]2(C)[C@@H](C[C@@H](O)[C@H]3[C@@]4(C)CC[C@@H](OC(=O)CCC(=O)N5CCN(C)CC5)[C@@H](C)[C@@H]4CC[C@@]32C)/C1=C(\CCC=C(C)C)C(=O)OCc1ccccc1" ?
**Result** 82

**Query** Query: viability at 1.5 µM; subject: "CC(=O)O[C@H]1C[C@@]2(C)[C@@H](C[C@@H](O)[C@H]3[C@@]4(C)CC[C@@H](OC(=O)CCCCCCCN)[C@@H](C)[C@@H]4CC[C@@]32C)/C1=C(\CCC=C(C)C)C(=O)OCc1ccccc1"
**Result** 83

**Query** viability at 1.5 µM for "CC(=O)O[C@H]1C[C@@]2(C)[C@@H](C[C@@H](O)[C@H]3[C@@]4(C)CC[C@@H](OC(=O)CCCCCCCCCCN)[C@@H](C)[C@@H]4CC[C@@]32C)/C1=C(\CCC=C(C)C)C(=O)OCc1ccccc1" ?
**Result** 93
